Just for reference, patent US20250250357A1 is where these values come from.

target: T1, human MSLN-FL-his protein (human, UniProt Q13421 296-580); test: SPR (Biacore), antibody captured on Protein A chip;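 further: flow cell at 25 °C, antigen injected for 240 s at five concentrations from 200 nM downward, dissociation followed up to 600 s, double-referenced, fitted with Langmuir 1:1 model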
T1 construct: made in HEK293E cells, purified on nickel column; also called hMSLN-FL-his; human MSLN full-length protein; not shown: His tag
T1 sequence (Q13421 other isoform, or with tags, fused parts or gaps): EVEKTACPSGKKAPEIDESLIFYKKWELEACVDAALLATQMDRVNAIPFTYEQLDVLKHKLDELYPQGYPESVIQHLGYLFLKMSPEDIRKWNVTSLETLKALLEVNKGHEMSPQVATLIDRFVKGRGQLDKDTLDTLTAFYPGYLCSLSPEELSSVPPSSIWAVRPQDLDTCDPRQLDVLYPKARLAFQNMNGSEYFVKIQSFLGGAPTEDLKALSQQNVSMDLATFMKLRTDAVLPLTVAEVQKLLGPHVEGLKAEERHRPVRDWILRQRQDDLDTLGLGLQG
Decide by kon: equal to or exceeding 500000 M⁻¹ s⁻¹ means class 1, less means class 0.

| binder | assignedLabel |
| --- | --- |
| S009-F7.48.1 (antibody, human IgG1, kappa, V domains shown, human-murine chimeric antibody, human IgG1/kappa constant regions) VH: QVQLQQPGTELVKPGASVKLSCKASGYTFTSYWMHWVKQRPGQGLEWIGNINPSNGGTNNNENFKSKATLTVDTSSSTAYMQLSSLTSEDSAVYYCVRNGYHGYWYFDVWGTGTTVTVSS VL: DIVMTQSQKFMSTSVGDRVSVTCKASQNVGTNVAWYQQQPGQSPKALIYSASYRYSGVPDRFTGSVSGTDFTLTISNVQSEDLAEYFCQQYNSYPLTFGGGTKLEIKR | class 0 |
| S009-F8-12.13 (antibody, human IgG1, kappa, V domains shown, human-murine chimeric antibody, human IgG1/kappa constant regions) VH: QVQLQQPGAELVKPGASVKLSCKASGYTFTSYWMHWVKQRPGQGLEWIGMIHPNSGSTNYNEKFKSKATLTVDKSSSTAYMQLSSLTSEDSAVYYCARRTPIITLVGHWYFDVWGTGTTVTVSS VL: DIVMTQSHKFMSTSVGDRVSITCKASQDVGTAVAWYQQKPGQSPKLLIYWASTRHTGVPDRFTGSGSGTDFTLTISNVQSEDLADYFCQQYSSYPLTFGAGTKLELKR | class 1 |
| S009-F7.18.10 (antibody, human IgG1, kappa, V domains shown, human-murine chimeric antibody, human IgG1/kappa constant regions) VH: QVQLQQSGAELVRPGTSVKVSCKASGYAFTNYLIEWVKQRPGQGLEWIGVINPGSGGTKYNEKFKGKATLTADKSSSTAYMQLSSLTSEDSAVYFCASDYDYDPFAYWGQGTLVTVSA VL: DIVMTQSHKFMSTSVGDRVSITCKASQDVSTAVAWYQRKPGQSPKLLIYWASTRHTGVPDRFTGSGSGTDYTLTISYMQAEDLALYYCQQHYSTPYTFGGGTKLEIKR | class 1 |

*Q* Decide: kon of S009-F8-13.8 (antibody, human IgG1, kappa, V domains shown, human-murine chimeric antibody, human IgG1/kappa constant regions) VH: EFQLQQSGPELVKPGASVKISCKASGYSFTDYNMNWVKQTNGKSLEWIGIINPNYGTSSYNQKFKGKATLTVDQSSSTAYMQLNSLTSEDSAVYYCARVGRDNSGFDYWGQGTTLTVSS VL: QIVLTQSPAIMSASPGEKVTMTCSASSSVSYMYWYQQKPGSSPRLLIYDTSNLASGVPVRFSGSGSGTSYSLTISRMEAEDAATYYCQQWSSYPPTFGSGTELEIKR >= 500000 M⁻¹ s⁻¹?
*A* class 1

*Q* Decide: kon of S009-F7.61.21 (antibody, human IgG1, kappa, V domains shown, human-murine chimeric antibody, human IgG1/kappa constant regions) VH: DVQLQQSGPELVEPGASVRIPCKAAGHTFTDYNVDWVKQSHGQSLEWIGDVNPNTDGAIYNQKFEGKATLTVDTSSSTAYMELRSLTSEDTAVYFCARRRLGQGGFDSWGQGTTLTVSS VL: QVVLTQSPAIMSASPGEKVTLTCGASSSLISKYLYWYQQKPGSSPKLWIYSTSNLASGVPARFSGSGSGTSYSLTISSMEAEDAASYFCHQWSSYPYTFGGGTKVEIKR >= 500000 M⁻¹ s⁻¹?
*A* class 0
